Target: T1, human IL-25 expressed with a C-terminal myc-myc-hexahistidine tag (human)
T1 construct: also called human IL-25-MMH; hIL-25-MMH
T1 chain: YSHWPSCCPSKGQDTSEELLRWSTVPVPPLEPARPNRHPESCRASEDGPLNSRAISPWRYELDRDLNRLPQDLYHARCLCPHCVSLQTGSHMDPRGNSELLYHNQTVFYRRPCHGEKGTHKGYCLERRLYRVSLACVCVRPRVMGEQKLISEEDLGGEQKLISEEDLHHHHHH
Test: SPR Biacore, captured mAb, 37°C
Parameter: pKd. Scope: all listed entries.
The meaning of pKd here: minus log10 of the concentration in molar units.

Query block: For the binder H4H10897P (antibody, human IgG4, V domains shown) VH: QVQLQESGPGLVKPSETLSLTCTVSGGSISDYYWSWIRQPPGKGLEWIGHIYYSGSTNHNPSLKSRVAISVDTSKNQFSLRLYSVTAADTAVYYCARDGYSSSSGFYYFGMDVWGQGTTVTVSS VL: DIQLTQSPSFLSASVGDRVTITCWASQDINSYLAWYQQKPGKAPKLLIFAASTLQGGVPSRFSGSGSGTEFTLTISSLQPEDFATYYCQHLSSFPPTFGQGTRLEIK , give its reported pKd.
Result block: 9.66

Query block: For the binder H4H10907P (antibody, human IgG4, V domains shown) VH: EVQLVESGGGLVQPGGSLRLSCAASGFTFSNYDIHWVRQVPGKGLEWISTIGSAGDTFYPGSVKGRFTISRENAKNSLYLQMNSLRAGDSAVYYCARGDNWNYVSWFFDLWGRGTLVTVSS VL: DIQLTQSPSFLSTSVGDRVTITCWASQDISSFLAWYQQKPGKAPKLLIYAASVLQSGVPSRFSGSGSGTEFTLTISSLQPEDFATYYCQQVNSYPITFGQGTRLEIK , give its reported pKd.
Result block: 10.43

Query block: For the binder H4H10871P (antibody, human IgG4, V domains shown) VH: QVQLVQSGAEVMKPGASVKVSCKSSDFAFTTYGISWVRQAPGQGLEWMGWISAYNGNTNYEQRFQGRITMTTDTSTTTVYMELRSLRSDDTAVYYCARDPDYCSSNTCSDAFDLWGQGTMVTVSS VL: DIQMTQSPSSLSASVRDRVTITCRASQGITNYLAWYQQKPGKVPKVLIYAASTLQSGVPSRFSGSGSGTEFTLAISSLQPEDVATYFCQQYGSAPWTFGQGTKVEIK , give its reported pKd.
Result block: 10.56

Cited source for all entries: patent US20160083466A1
